Collected normalised cell number values appear next to each entry.
# Protocol notes: differential killing of epithelial or mesenchymal cells, primary screen, imaging, PC-3E GFP, TEM4-18 mCherry, co-culture (AID 1345086);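 also: cells exposed to compound for 72 h before imaging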
# Condition summary: imaging cell counts, measured here: epithelial PC-3E GFP cell survival, at 1 µM
Reply with just the number.

{"columns": ["Compound", "Reported"],
 "data": [
  ["CCN1CCN(C(=O)NC(C(=O)NC2C(=O)N3C(C(=O)O)=C(CSc4nnnn4C)CSC23)c2ccc(O)cc2)C(=O)C1=O (stereo not drawn)", 0.99],
  ["CC(=O)N1CCCC1C(=O)O (stereo not drawn)", 1.3],
  ["CO/N=C(/C(=O)NC1C(=O)N2C(C(=O)OC(C)OC(C)=O)=C(COC(N)=O)CSC12)c1ccco1 (stereo not drawn)", 0.93],
  ["C#C[C@]1(O)CCC2C3CCc4cc(OC5CCCC5)ccc4C3CC[C@@]21C (stereo partly drawn)", 1.02],
  ["CN[C@@H]1[C@H](OC2[C@H](O[C@H]3[C@H](O)[C@@H](O)[C@H](N=C(N)N)[C@@H](O)[C@@H]3N=C(N)N)O[C@@H](C)[C@]2(O)C=O)O[C@@H](CO)[C@H](O)[C@H]1O (stereo partly drawn)", 1.02]
]}

Request: Please give the measured normalised cell number for this compound: COC(=O)C[C@@H]1C2(C)C(=O)[C@@H](CC3=C4CC(O)O[C@@H](c5ccoc5)[C@]4(C)CCC32)[C@H](O)C1(C)C (stereo partly drawn)
Result: 0.99

Request: Now try COc1ccc(-c2cc(=O)c3c(O)cc(OC)cc3o2)cc1 .
Result: 1.08

Request: Now try O=c1c(O)c(-c2ccc(O)cc2)oc2cc(O)cc(O)c12 .
Result: 1.03

* * *

# Protocol notes: viability loss in pontine glioma line – cell-based, SU-DIPG-XXV, MIPE5.0, CellTiter-Glo, qHTS, dose response (AID 1347065);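 also: cells exposed to compound for 48 hours before ATP readout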
# Condition summary: CellTiter-Glo ATP luminescence
Results filed as inconclusive are left out. The source made the active and inactive calls. Cut-off not given; nearly all actives show AC50 up to about 26 µM.
I would appreciate it if you answered using one of these outcomes: YES for active, NO for inactive

Consider the following illustrative entries.
{"columns": ["Compound", "Cat"],
 "data": [
  ["O=c1ncccn1[C@@H]1O[C@H](CO)[C@@H](O)[C@H]1O", "NO"],
  ["Cc1coc2c1C(=O)C(=O)c1c-2ccc2c1CCCC2(C)C", "YES"],
  ["O=C1C(Cl)=C(NCCN2CCOCC2)C(=O)c2ncccc21", "YES"],
  ["N#Cc1c(O)c2c(-c3ccc(-c4ccccc4O)cc3)csc2[nH]c1=O", "NO"],
  ["CC(=O)O[C@H]1C(=O)[C@@]2(C)C([C@H](OC(=O)c3ccccc3)[C@]3(O)C[C@H](OC(=O)[C@H](O)[C@@H](NC(=O)c4ccccc4)c4ccccc4)C(C)=C1C3(C)C)[C@]1(OC(C)=O)CO[C@@H]1C[C@@H]2O (stereo partly specified)", "YES"],
  ["Cc1cc2c(s1)Nc1ccccc1N=C2N1CCN(C)CC1", "NO"]
]}

Request: Short answer needed: outcome of this test for CC(C)c1ccc2c(c1)c(SC(C)(C)C)c(CC(C)(C)C(=O)O)n2Cc1ccc(Cl)cc1 ?
Result: YES

Request: Now try O=C(O)c1ccc2cc(-c3ccc(O)c(C45CC6CC(CC(C6)C4)C5)c3)ccc2c1 .
Result: YES

Request: Now try COc1cccc(-c2cc(=O)c3ccccc3o2)c1N .
Result: NO

Request: Now try COC1CCC(C(=O)c2ccc3nc4c(cc3c2)CCCO4)CC1 (stereo unspecified) .
Result: NO

Request: Now try Cc1ccc(/C=N/NC(=O)c2ccccc2Oc2ccccc2)o1 .
Result: NO

* * *

# Protocol notes: human astrocyte viability loss, single and combined drugs, cytotoxicity control for chromothriptic childhood tumor combination screen, cell-based, BGB or cisplatin IC20 combos (AID 1671460);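 also: cells exposed to compounds for 96 hours before viability readout; 0% = vehicle and 100% = killing control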
# Condition summary: Human astrocytes, drug combinations, measured here: combo with BGB IC20, at 0.5 µM, stronger effect = higher value
Measured attribute: inhibition (%)
Answer in %, number only, no unit symbol.

{"columns": ["Smiles code", "inhibition / %"],
 "data": [
  ["CCc1c2c(nc3ccc(O)cc13)-c1cc3c(c(=O)n1C2)COC(=O)[C@]3(O)CC", 94.5],
  ["CO[C@H]1/C=C/O[C@@]2(C)Oc3c(C)c(O)c4c(O)c(c(C=NN5CCN(C)CC5)c(O)c4c3C2=O)NC(=O)/C(C)=C\\C=C\\[C@H](C)[C@H](O)[C@@H](C)[C@@H](O)[C@@H](C)[C@H](OC(C)=O)[C@@H]1C", -11],
  ["Cc1c(-c2cnccn2)ssc1=S", -4.93],
  ["O=C(Nc1ccccc1)c1ccccc1O", 7.24],
  ["O=c1cc(-c2cccc3c2Sc2ccccc2S3)oc(N2CCOCC2)c1", -56.7]
]}

Next up:
Request: Please give the measured inhibition for this compound: CC(C)N=c1cc2n(-c3ccc(Cl)cc3)c3ccccc3nc-2cc1Nc1ccc(Cl)cc1
Result: 3.64

* * *

# Protocol notes: modulation of C. elegans fzo-1 (AID 1259413);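 also: fzo-1 mutant C. elegans worms in liquid wells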
# Condition summary: C. elegans fzo-1 modulator screen, mean read-out; stronger effect = higher value
Measured attribute: mean signal
Reply with just the number.

{"columns": ["Molecule", "Reported"],
 "data": [
  ["CCOC(=O)C1(CCCCCCOc2ccc(Cl)cc2)CO1 (stereo unspecified)", 266],
  ["CC1(C)SC2C(NC(=O)C(N)c3ccccc3)C(=O)N2C1C(=O)O (stereo unspecified)", 248],
  ["CN1CCN(c2nc3cc(C(F)(F)F)ccc3n3cccc23)CC1", 175]
]}

Request: Please give the measured mean signal for this molecule: CC1(C)C[C@@H]1C(=O)N/C(=C\CCCCSC[C@H](N)C(=O)O)C(=O)O
Result: 226

Request: Now try CCOC(=O)CCC(=O)OC1C(OC2C(C)C(OC3CC(C)(OC)C(O)C(C)O3)C(C)C(=O)OC(CC)C(C)(O)C(O)C(C)C(=O)C(C)CC2(C)O)OC(C)CC1N(C)C (stereo unspecified) .
Result: 242

Request: Now try C=C1/C(=C\C=C2/CCCC3(C)[C@@H]([C@H](C)CCCC(C)(C)O)CC[C@@H]23)C[C@@H](O)C[C@@H]1O (stereo partly specified) .
Result: 260

Request: Now try CC1c2cccc(O)c2C(O)=C2C(=O)C3(O)C(O)=C(C(N)=O)C(=O)C(N(C)C)C3C(O)C21 (stereo unspecified) .
Result: 241

Request: Now try CC[C@]1(O)CC2CN(CCc3c([nH]c4ccccc34)[C@@](C(=O)OC)(c3cc4c(cc3OC)N(C=O)[C@H]3[C@@](O)(C(=O)OC)[C@H](OC(C)=O)[C@]5(CC)C=CCN6CC[C@]43[C@@H]65)C2)C1 (stereo partly specified) .
Result: 261

Request: Now try O=C(NC(CO)C(O)c1ccc([N+](=O)[O-])cc1)C(Cl)Cl (stereo unspecified) .
Result: 263

* * *

# Protocol notes: differential killing of epithelial or mesenchymal cells, primary screen, imaging, PC-3E GFP, TEM4-18 mCherry, co-culture (AID 1345086);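 also: cells exposed to compound for 72 h before imaging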
# Condition summary: imaging cell counts, measured here: mesenchymal TEM4-18 mCherry cell survival, at 1 µM
# binarize normalised cell number: threshold 1 inclusive, high side true (1), low side false (0)

Consider the following illustrative entries.
{"columns": ["Molecule", "Cat"],
 "data": [
  ["CC1(C)OC(=O)C(OCC2CC2)=C1c1ccc(S(C)(=O)=O)cc1", "true (1)"],
  ["Cc1onc(-c2ccccc2)c1C(=O)NC1C(=O)N2[C@@H]1SC(C)(C)[C@@H]2C(=O)O (some centres undefined)", "true (1)"],
  ["C=C(C)C#CC1=C[C@@H](O)[C@@H]2O[C@]2([C@H](O)C=C(C)C)[C@@H]1O", "false (0)"],
  ["CN[C@@H]1C(OC2[C@H](O[C@H]3[C@H](O)[C@@H](O)[C@H](N=C(N)N)[C@@H](O)[C@@H]3N=C(N)N)OC(C)[C@]2(O)CO)OC(CO)C(O)C1O (some centres undefined)", "true (1)"],
  ["C[C@H](CCC(=O)O)[C@H]1CCC2C3C(CC[C@@]21C)[C@@]1(C)CC[C@@H](O)C[C@H]1C[C@H]3O (some centres undefined)", "true (1)"]
]}

Request: Decide: normalised cell number of CC1/C=C/C=C/C=C/C=C/C=C/C=C/C=C/C(O[C@@H]2O[C@H](C)[C@H](O)[C@@H](O)[C@@H]2N)CC(O)C(C(=O)O)C(O)CC(=O)CC(O)CC(O)CC(O)CC(=O)CCCC(=O)CC(=O)OC1C(C)CC(C)C(O)CC(=O)c1ccc(N)cc1 (some centres undefined) >= 1?
Result: true (1)

Request: Now try Cc1[nH]cc[n+]1CC1CCC2C(C1=O)c1ccccc1N2C (centres undefined) .
Result: false (0)

Request: Now try C=C(C)n1cc(C(=O)OC)c(=O)c2cc(F)c(F)c(OC)c21 .
Result: true (1)

Request: Now try C[C@@H]1CC[C@H]2C(C)(C)C3CC12CC[C@@]3(C)O (some centres undefined) .
Result: false (0)

Request: Now try [N-]=[N+]=N[C@H]1[C@H](Sc2ccccc2)OC(CO)C(O)[C@@H]1O (some centres undefined) .
Result: true (1)

Request: Now try NCCOB(c1ccccc1)c1ccccc1 .
Result: false (0)
